system: MOLT-4 leukemia; test: NCI tumour cell line growth inhibition, 48 h
Assay readout: TGI

CC(C)(C)OC(=O)N1CC(CCl)c2ccc(O)cc21 (stereo not given) :: 8.13 µM
N#COc1ccc(Oc2ccccc2)cc1 :: > 100 µM
COc1cccc(-c2nn(-c3ccccc3)cc2-c2ccnc(NCCCNC(=O)c3cccc(C(F)(F)F)c3)c2)c1 :: 9.35 µM
O=C1CCCC/C1=C1/SC(=Nc2ccccc2)C(=Nc2ccccc2)N1c1ccccc1 :: > 100 µM

Please examine the following record next.
[in] Identify measured TGI associated with O=C1/C(=C/c2ccc3c(c2)OCCO3)CCC/C1=C\c1ccc2c(c1)OCCO2
[out] > 100 µM
